Answer each item with its documented self-cleavage.
B1: Hairpin Ribozyme (parent)
chain: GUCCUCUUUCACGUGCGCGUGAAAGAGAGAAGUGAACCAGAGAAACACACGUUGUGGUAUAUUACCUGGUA

Variants of: B1
Test: self-cleavage, relative activity (ratio to wild type); higher = more cleavage; co-transcriptional
Numbers only.

Worked cases, self-cleavage given:
- Polymer Sequence: "GUCCUCUUUCACGUGCGCGUGAAAGAGAGAAGUGAACCAGAGAAAUACACGUUGUGGUAAAUUACCUGGUA [C46U U60A]"
  self-cleavage: 0.16
- Polymer Sequence: "GUCCUCUUUCACGGGCGCGUGAAAGAGAGAAGUGAACCAGAGAAACACACGUUGUGGUUUAUUACCUGGUA [U14G A59U]"
  self-cleavage: 0.183

Batch lookup, self-cleavage per entry.
1. GUCCUCUUUCACGUGCGCGUGAAAGAGAGAAGUGAAGCAGAGAAACACACGUUGUGGUAGAUUACCUGGUA [C37G U60G]
2. GUCCUCUUUCACGUGCGCGUGAAAGAGAGAAGUGAACAAGAGAAACACACGUUGUGGUAUAUCACCUGGUA [C38A U63C]
3. GUCCUCUUUCAUGUGCGCGUGAAAGAGAGAAGUGAACCAGAGAAACACACGCUGUGGUAUAUUACCUGGUA [C12U U52C]
4. GUCCUCUUUCACGCGCGCGUGAAAGAGAGAAGUGAACCAGAGAAUCACACGUUGUGGUAUAUUACCUGGUA [U14C A45U]
5. GUCCUCUUUCACGUGCGCGUGAAAGACAGAAGUGAACCAGAGAAACACACGUUGUGGUAUAUUACCUGUUA [G27C G69U]
6. GUACUCUUUCACGUGCGCGUGAAAGAGAGAAGUGAACCAGAGAAACACACGUUGUGGCAUAUUACCUGGUA [C3A U58C]
7. GUCCUCUUUCACGUGCGCGUGCAAGAGAGAAGUGAACCAGAGAAACACACGUUGUGGUAUAUUACCCGGUA [A22C U67C]
8. GUCCUCUUUCACGUGCGCGUGAAAGAGAGAAGUGAACCAGAGAAACACACUUUGUGGUAUAUUACCCGGUA [G51U U67C]

0.245
0.0636
1.1
0.119
0.162
0.811
0.196
0.299
